Cited source for all entries: paper PMC3817407

For each entry below, report its fold repression value.
# studyTarget: T1, ECF03_1244
# T1 chain: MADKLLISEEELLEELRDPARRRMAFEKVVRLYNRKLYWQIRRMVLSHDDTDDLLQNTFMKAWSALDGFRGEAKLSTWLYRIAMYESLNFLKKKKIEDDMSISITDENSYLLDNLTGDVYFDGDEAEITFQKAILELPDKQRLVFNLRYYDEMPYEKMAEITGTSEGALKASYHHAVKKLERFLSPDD

Recorded results for 6 binders are shown here.
AS27_1331 (protein) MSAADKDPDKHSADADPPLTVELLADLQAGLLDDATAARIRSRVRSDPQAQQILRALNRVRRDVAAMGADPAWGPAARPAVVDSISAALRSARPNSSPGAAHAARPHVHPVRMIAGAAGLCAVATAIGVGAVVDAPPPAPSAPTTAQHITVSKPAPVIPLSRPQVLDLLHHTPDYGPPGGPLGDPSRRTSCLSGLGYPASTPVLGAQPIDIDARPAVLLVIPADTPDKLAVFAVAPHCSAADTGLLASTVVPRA
4.29
AS35_3582 (protein) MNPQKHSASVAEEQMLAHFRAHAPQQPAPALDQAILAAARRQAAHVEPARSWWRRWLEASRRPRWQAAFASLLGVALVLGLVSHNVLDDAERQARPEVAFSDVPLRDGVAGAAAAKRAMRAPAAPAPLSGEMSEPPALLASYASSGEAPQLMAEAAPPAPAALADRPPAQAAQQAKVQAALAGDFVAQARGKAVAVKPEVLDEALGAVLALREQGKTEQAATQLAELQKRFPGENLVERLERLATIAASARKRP
4.18
AS15_524 (protein) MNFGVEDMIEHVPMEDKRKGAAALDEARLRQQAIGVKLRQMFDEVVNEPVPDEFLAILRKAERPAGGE
2.96
AS03_1244 (protein) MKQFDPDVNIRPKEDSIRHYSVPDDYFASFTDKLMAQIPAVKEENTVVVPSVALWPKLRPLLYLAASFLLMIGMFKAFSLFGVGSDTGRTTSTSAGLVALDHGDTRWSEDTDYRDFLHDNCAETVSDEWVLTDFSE
60.8
AS27_4265 (protein) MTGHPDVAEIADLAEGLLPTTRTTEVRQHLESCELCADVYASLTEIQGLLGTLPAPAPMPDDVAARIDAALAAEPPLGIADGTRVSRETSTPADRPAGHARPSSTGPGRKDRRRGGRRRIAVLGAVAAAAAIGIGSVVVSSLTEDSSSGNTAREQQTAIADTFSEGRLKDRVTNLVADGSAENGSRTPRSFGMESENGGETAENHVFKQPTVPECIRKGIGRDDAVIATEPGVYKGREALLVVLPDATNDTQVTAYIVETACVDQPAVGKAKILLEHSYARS
1.38
AS16_973 (protein) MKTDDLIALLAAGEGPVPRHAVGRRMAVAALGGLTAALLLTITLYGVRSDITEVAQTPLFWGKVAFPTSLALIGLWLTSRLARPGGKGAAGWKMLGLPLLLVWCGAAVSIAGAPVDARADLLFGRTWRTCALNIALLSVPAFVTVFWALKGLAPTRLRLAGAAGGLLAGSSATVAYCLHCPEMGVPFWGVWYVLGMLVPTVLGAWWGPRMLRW
0.783

# per-item lookup of fold repression; items listed below
1. AS11_987 (protein) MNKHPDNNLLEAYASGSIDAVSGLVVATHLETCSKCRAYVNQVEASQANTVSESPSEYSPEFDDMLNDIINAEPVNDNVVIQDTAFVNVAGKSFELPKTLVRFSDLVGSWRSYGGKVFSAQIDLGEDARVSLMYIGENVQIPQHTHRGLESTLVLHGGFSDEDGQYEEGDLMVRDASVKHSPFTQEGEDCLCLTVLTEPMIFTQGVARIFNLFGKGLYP
2. AS30_35 (protein) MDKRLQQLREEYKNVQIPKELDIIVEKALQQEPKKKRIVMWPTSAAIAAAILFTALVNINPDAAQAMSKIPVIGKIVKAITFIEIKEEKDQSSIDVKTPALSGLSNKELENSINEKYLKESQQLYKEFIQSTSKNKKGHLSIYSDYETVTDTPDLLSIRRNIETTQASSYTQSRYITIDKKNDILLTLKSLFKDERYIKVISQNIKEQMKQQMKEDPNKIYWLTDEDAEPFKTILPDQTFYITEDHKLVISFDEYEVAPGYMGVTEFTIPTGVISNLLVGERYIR
3. AS15_436 (protein) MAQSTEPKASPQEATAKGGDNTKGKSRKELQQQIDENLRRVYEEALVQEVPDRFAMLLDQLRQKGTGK
4. AS25_1645 (protein) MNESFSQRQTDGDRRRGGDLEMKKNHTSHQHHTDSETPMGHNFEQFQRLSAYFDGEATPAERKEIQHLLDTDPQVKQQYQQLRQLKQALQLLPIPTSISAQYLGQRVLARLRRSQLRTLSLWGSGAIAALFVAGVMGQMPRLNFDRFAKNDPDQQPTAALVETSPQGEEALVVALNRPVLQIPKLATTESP
5. AS33_375 (protein) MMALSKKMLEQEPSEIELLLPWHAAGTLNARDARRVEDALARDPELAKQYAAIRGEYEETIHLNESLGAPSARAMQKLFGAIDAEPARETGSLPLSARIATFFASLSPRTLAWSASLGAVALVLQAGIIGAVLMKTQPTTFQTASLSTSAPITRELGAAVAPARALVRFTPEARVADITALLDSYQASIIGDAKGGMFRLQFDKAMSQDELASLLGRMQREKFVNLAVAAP

OUTPUT:
1: 2.2; 2: 1.74; 3: 1.54; 4: 4.7; 5: 16.3
